Measured kon, listed per entry for reference.
- target_under_test: T1, human IL-6 (human, UniProt P05231 30-212)
- T1 construct: also called interleukin-6
- measurement_description: SPR (Biacore T200), antibody from cell supernatant captured on Protein A, IL-6 flowed over, 37 C

binder	kon
anti-IL-6 antibody, heavy chain T65F, G66D / light chain WT (antibody, human IgG1, V domains shown, Derived as m2; Engineered human IgG1) VH: EVQLVESGGGLVQPGGSLRLSCAASGFTFSPFAMSWVRQAPGKGLEWVAKISPGGSWTYYSDTVFDRFTFSLDTSKSTAYLQMNSLRAEDTAVYYCARQLWGYYALDIWGQGTLVTVSS VL: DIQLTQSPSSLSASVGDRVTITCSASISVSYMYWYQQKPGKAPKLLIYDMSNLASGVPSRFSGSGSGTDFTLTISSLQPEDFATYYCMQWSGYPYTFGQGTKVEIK	1.56e+06 M⁻¹ s⁻¹
anti-IL-6 antibody, heavy chain S35Y, G66D / light chain WT (antibody, human IgG1, V domains shown, Derived as m2; Engineered human IgG1) VH: EVQLVESGGGLVQPGGSLRLSCAASGFTFSPFAMYWVRQAPGKGLEWVAKISPGGSWTYYSDTVTDRFTFSLDTSKSTAYLQMNSLRAEDTAVYYCARQLWGYYALDIWGQGTLVTVSS VL: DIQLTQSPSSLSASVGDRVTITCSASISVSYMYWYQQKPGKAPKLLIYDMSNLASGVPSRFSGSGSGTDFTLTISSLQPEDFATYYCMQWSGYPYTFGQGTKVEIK	1.1e+06 M⁻¹ s⁻¹

meta.source: patent US20240368267A1
